Experimental target: T1, rhCD39-ECD-His (R&D Systems) (human, UniProt P49961 38-478)
T1 construct: Bought protein; that entry runs on through the C-terminal transmembrane and cytoplasmic residues; also called recombinant human CD39 extracellular domain; soluble recombinant human CD39 (ENTDP1) ECD; not shown: His tag
T1 sequence: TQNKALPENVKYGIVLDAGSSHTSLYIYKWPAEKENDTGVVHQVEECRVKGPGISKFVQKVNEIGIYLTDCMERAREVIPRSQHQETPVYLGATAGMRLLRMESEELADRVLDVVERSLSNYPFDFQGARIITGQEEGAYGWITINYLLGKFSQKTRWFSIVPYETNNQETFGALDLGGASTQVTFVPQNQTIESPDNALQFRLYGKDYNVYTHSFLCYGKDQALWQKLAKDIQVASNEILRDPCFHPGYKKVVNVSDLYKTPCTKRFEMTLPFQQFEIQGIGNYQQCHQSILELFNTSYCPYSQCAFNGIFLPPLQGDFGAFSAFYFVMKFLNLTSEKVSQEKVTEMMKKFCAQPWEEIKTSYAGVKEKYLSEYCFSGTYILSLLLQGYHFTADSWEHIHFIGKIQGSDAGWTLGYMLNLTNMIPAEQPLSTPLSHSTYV
Procedure summary: BLI (Octet), IgG on anti-human Fc sensor, rhCD39-ECD-His 10-300 nM, 1:1 fit
Value type: kon (M⁻¹ s⁻¹)
Numbers only, in M⁻¹ s⁻¹.

// below: answered binders
27587 (antibody, V domains shown) VH: QVQLVQSGAEVKKPGSSVKVSCKASGGTFSSYAISWVRQAPGQGLEWMGSIIPIFGTANYAQKFQGRVTITADESTSTAYMELSSLRSEDTAVYYCARESGGYRDHKLDVWGQGTMVTVSS VL: EIVLTQSPATLSLSPGERATLSCRASQSVSSYLAWYQQKPGQAPRLLIYDASKRATGIPARFSGSGSGTDFTLTISSLEPEDFAVYYCQQDVLWPLTFGGGTKVEIKR = 211000
27571 (antibody, V domains shown) VH: QVQLVQSGAEVKKPGSSVKASCKASGGTFSSYAISWVRQAPGQGLEWMGSIIPIFGTANYAQKFRGRVTITADESTSTTYMELSSLRSEDTAVYYCARESGGYRDHRLDVWGQGTMVTVSS VL: EIVMTQSPATLSVSPGERATLSCRASQSVGSNLAWYQQKPGQAPRLLIYGASTRATGIPARFSGSGSGTEFTLTISSLQSEDFAVYYCQQYLIWPLTFGGGTKVEIK = 639000

Provide reported kon for each item, in the same order as listed.
1. 31393 (antibody, V domains shown) VH: QVQLVQSGAEVKKPGSSVKVSCKASGGTFESYGISWVRQAPGQGLEWMGSIIPEFGIANYAQKFQGRVTITADESTSTTYMELSSLRSEDTAVYYCARESGGYRDHRLDVWGQGTMVTVSS VL: EIVMTQSPATLSVSPGERATLSCRASQSVGSNLAWYQQKPGQAPRLLIYGASTRATGIPARFSGSGSGTEFTLTISSLQSEDFAVYYCQQYLLWPLTFGGGTKVEIKR
2. 27590 (antibody, V domains shown) VH: QVQLVQSGAEVKKPGSSVKVSCKASGGTFSNYAISWVRQAPGQGLEWMGGIIPIFGTANYAQKFQGRVTITADESTSTAYMELSSLRSEDTAVYYCARGPTVTATTSIGTHNWFDPWGQGTLVTVSS VL: EIVLTQSPATLSLSPGERATLSCRASQSVSSYLAWYQQKPGQAPRLLIYDASNRATGIPARFSGSGSGTDFTLTISSLEPEDFAVYYCQQRNFYPPTFGGGTKVEIK
3. 27577 (antibody, V domains shown) VH: QVQLVQSGAEVKKPGSSVKVSCKASGGAFSSYAIGWVRQAPGQGLEWMGGIIPTFGTANYAQKFQGRVTITADESTSTAYMELSSLRSEDTAVYYCARDGGGYQHHYFDLWGRGTLVTVSS VL: EIVMTQSPATLSVSPGERATLSCRASQSVGSNLAWYQQKPGQAPRLLIYGASTRATGIPARFSGSGSGTEFTLTISSLQSEDFAVYYCQQLTKWPLTFGGGTKVEIKR

Result block:
298000
176000
893000

// provenance: patent US20250026850A1
